B1: ESRRG (parent)
chain: YSCPATNECEITKRRRKSCQACRF

Variants of: B1
test-protocol: protein stability index of a GFP-peptide fusion (GPS, HEK-293T) (PSI 1-6); higher = more stable;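 also: lentivirally expressed fusions sorted by FACS into six bins by GFP to DsRed ratio, PSI derived from sequencing read proportions per bin multiplied by bin number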
details: c terminus: a fixed tail appended
quantity-name: protein stability index
Write the value as a bare number.

Take a look at these entries with their results.
{"biosequence": "YSCPATNECEITVRRRKSCQACRF", "recorded-number": 3.59}
{"biosequence": "YSCPATNECEITKRRRKSCQACIF", "recorded-number": 2.59}

Form field protein stability index, entry YSCPATNECEITKRREKSCQACRF : 3.63

Form field protein stability index, entry YSCPATNECEITKRRRKSCLACRF : 2.53

Form field protein stability index, entry HSCPATNECEITKRRRKSCQACRF : 3.8
